experiment: Mouse liver microsome (MLM) stability; type: in vitro ADME; settings: microsomal stability in mouse liver microsomes (MLM)
measurement name: MLM T1/2 (min)
Kindly provide the numeric value in min only, without the unit symbol.

Summary for this compound, CC(C)=CC(CC(C)(C)c1ccc(C)cc1)N(C)CC1CCOCC1 (stereo not drawn) [Compound 112] : MLM T1/2 is 4.9

The compound listed as COc1ccc(CCC(C=C(C)C)N2CCOCC2)cc1 (stereo not drawn) [Compound 104] has a reported MLM T1/2 of 1.3

MLM T1/2 for CC(C)=CC(CC(C)(C)c1ccc(C)cc1)N(C)C1CCOCC1 (stereo not drawn) [Compound 109] is 5.4

CC(C)=CC(CC(C)(C)c1ccc(F)cc1)N1CCC(O)CC1 (stereo not drawn) [Compound 79] yielded MLM T1/2 of 74

For COc1ccc(C(C)(C)CC(C=C(C)C)N(C)CCCC2CCOCC2)cc1 (stereo not drawn) [Compound 110] the compound record lists MLM T1/2 as 2.6

get_value(item= COc1ccc(C(C)(C)CC(C=C(C)C)NC2CCOCC2)cc1 (stereo not drawn) [Compound 99] , readout=MLM T1/2) returns 7.4

The compound listed as CC(C)=CC(CC(C)(C)c1ccc(Cl)cc1)N1CCC(C)(C)CC1 (stereo not drawn) [Compound 31] has a reported MLM T1/2 of 21

Entry CC(C)=CC(CC(C)(C)c1ccc(Cl)cc1)N1CCC(C)(O)CC1 (stereo not drawn) [Compound 73] ; MLM T1/2 = 87

====

assay: log P; format: physicochemical
Exercise: state measured log P for each of the compounds provided.

Entry CC(CC(C)(C)c1ccc(C(F)(F)F)cc1)N1CCC(CCO)CC1 (centres unmarked) [Compound 2] — recorded log P = 4.67

Measured log P, CC(C)=CC(CC(C)(C)c1ccc(N2CCOCC2)cc1)N1CCC(C2CCOCC2)CC1 (centres unmarked) [Compound 149] : 5.59

# log P of CC(C)=C[C@H](CC(C)(C)c1ccc(C(F)(F)F)cc1)N1CCC(C2CCOCC2)CC1 [Compound 261] = 6.58

Looking up CC(C)=CC(CC(C)(C)c1ccc(C(F)(F)F)cc1)N1CCC2(CC1)OCc1ccccc12 (centres unmarked) [Compound 189] , I see its log P listed as 6.89

Reported log P for CCOC(=O)N1CCN(C(C=C(C)C)CC(C)(C)c2ccc(C(F)(F)F)cc2)CC1 (centres unmarked) [Compound 208] was 5.58

Entry CCOC(=O)C1CCN(C(C)CC(C)(C)c2ccc(Cl)cc2)CC1 (centres unmarked) [Compound 268] — recorded log P = 4.83

Consider CC(C)=CC(CC(C)(C)c1ccc(Cl)cc1)N1CCC(c2cccc(S(C)(=O)=O)c2)CC1 (centres unmarked) [Compound 46] . Its measured log P is 6.37

Value of measured log P for the entry CC(C)=CC(CC(C)(C)c1ccc(F)cc1)N1CCN(C(=O)c2ccccc2)CC1 (centres unmarked) [Compound 153] : 5.73

====

Can you tell me IC50 for the items I'm about to list?
target: potassium channel hERG (Homo sapiens (Human), UniProt Q12809); experiment: In vitro testing for hERG inhibition; format: biochemical; details: in vitro toxicity potassium channel hERG
Sequence (Q12809 whole entry): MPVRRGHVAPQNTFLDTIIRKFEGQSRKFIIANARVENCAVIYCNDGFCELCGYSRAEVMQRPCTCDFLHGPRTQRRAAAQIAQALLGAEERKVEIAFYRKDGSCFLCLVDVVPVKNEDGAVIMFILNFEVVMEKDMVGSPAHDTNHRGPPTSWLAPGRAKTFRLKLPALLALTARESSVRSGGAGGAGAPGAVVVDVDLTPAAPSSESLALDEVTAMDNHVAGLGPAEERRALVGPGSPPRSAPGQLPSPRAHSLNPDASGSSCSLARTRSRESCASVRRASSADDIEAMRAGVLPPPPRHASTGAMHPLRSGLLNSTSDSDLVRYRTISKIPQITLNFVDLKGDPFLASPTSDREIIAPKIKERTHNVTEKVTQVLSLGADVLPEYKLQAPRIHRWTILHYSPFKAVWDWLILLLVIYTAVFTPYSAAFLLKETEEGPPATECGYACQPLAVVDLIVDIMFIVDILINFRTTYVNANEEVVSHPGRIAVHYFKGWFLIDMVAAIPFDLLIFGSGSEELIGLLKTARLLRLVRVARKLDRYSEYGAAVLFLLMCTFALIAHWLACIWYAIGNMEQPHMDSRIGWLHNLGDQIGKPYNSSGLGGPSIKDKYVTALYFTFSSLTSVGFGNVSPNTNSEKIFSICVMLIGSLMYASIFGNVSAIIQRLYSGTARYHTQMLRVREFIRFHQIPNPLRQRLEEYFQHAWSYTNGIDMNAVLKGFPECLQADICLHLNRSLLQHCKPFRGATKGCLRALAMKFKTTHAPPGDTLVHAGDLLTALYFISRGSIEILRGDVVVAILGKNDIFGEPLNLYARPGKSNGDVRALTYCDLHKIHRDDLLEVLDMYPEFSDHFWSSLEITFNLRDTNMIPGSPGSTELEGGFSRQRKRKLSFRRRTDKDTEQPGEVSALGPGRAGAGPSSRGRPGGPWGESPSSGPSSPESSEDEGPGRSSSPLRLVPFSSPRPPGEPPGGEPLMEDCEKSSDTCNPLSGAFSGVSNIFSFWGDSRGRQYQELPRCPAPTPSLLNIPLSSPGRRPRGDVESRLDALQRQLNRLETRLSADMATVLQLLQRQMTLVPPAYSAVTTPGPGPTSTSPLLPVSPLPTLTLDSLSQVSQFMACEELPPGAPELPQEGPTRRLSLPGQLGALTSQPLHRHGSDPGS
Hi! Could you send only the number? It should be in µM, unit omitted.

The compound identified as CC(C)=CC(CC(C)(C)c1ccc(F)cc1)N1CCCCC1 (centres unmarked) registered its IC50 at 27

The reported value for CC(C)=CC(CC(C)(C)c1ccc(C(F)(F)F)cc1)N1CCC(C(F)(F)F)CC1 (centres unmarked) in terms of IC50 is 16.3

Quick note, IC50 for CC(C)=CC(CC(C)(C)c1ccc(F)cc1)N1CCC(C)(O)CC1 (centres unmarked) landed at 41

Item: CC1(O)CCN(CCC(C)(C)c2ccc(C(F)(F)F)cc2)CC1 | IC50: 18

Record summary for CC(C)=CC(CC(C)(C)c1ccc(Cl)cc1)N1CCC(C2CCOCC2)CC1 (centres unmarked) : reported IC50 = 1.5
